- Target or test system: recombinant hMAO-B (Homo sapiens (Human), UniProt P27338)
- Sequence (P27338 whole entry): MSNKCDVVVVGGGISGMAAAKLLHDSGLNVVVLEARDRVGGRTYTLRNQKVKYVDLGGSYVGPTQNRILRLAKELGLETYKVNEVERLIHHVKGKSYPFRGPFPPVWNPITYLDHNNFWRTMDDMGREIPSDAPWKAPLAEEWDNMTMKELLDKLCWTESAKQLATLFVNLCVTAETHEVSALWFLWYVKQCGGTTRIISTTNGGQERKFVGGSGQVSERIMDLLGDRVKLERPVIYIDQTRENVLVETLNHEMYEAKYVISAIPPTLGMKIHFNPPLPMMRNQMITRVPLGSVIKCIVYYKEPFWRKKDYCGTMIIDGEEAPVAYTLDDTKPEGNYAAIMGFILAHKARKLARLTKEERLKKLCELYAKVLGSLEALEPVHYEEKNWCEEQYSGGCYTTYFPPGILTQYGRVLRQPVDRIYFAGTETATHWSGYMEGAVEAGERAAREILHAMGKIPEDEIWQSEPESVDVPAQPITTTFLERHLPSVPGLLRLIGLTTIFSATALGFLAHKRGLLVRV
- Procedure summary: MAO-B activity assay (MAO-Glo assay kit)
- Protocol conditions: 4 μM substrate, 30 mins pre-incubation
In this section we review reported IC50 values for a set of compounds.

Observe how each entry below is paired with its result.
Compound | Readout label | Result
CC1CCN(C23CCC(CS(=O)(=O)c4ccc(OC/C(=C/F)CN)cc4)(CC2)CC3)C1=O (stereo not shown) | IC50 | 10 to 30 µM
CN(C)C(=O)C12CCC(CS(=O)(=O)c3ccc(OC/C(=C/F)CN)cc3)(CC1)CC2 | IC50 | 10 to 30 µM
CC1(C)CCC(=O)N1CS(=O)(=O)c1ccc(OC/C(=C/F)CN)cc1Cl | IC50 | > 30 µM

Below: the item to evaluate.
Item under review: NC/C(=C\F)COc1ccc(S(=O)(=O)CC23CCC(NC(=O)C4CC4(F)F)(CC2)CC3)cc1 (stereo not shown) . Reported IC50?
10 to 30 µM

----------
In this section we review reported pIC50 values for a set of compounds.
- Target or test system: recombinant hSSAO (Homo sapiens (Human), UniProt Q16853)
- Sequence (Q16853 whole entry): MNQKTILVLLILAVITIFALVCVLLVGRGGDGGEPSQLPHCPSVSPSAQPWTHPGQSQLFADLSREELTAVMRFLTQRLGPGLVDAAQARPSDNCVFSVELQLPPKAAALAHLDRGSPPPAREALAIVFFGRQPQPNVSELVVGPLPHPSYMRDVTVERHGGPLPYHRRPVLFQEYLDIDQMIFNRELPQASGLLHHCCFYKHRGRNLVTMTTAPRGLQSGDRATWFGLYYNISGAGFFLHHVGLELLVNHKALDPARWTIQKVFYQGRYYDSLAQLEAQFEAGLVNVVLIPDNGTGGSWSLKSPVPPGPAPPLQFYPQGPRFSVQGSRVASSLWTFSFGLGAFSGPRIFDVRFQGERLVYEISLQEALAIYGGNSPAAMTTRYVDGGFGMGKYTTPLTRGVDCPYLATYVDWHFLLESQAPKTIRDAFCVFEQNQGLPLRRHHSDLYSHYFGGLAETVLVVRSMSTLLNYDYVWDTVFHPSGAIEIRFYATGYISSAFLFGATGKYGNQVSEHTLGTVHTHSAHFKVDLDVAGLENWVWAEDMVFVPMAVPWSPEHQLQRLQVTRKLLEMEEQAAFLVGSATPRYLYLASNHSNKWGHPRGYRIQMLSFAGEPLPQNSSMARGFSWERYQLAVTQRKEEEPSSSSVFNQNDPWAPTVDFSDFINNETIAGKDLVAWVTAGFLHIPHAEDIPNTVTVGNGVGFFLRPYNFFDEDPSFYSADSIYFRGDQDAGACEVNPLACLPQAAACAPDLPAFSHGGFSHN
- Procedure summary: SSAO Activity Assay (MAO-Glo assay kit)
- Protocol conditions: 40 μM substrate, 30 mins pre-incubation
pIC50: −log10 of the molar value.

Compound | pIC50
NC/C(=C\F)COc1ccc(S(=O)(=O)CC23CCC(C(=O)N4CCC(F)(F)CC4)(CC2)CC3)cc1 [compound 63] | 7.00 to 7.70

Item under review: CC(C)(C)C(=O)N1CCN(CS(=O)(=O)c2ccc(OC/C(=C/F)CN)cc2)C(=O)C1 [compound 133] . Reported pIC50?
6.30 to 7.00

Item under review: NC/C(=C\F)COc1ccc(S(=O)(=O)CC2CCN(C(=O)C3(C(F)(F)F)CC3)CC2)cc1 [Compound 49] . Reported pIC50?
7.00 to 7.70

Item under review: CC(C)C(=O)N(C)CS(=O)(=O)c1ccc(OC/C(=C/F)CN)cc1 [Compound 122] . Reported pIC50?
7.00 to 7.70

Item under review: CC(CN1C(=O)CCC1(C)C)CS(=O)(=O)c1ccc(OC/C(=C/F)CN)cc1 (centres unmarked) [Compound 111] . Reported pIC50?
7.00 to 7.70

Item under review: NC/C(=C\F)COc1ccc(S(=O)(=O)CN2CCOCC2=O)cc1 [Compound 130] . Reported pIC50?
7.00 to 7.70

Item under review: NC/C(=C\F)COc1ccc(S(=O)(=O)CCN2CCCCC2=O)cc1 [Compound 107] . Reported pIC50?
> 7.70

Item under review: COCCOCS(=O)(=O)c1ccc(OC/C(=C/F)CN)cc1 [compound 29] . Reported pIC50?
7.00 to 7.70

----------
- Target or test system: recombinant hMAO-B (Homo sapiens (Human))
- Procedure summary: MAO-B activity assay (MAO-Glo assay kit)
- Protocol conditions: 4 μM substrate, 30 mins pre-incubation
pIC50: −log10 of the molar value.
Readout label: pIC50

Item under review: NC/C(=C\F)COc1ccc(S(=O)(=O)CC23CCC(C(=O)N4CC(F)(F)C4)(CC2)CC3)cc1 . Reported pIC50?
< 4.52

----------
- Target or test system: recombinant hMAO-B (Homo sapiens (Human))
- Procedure summary: MAO-B activity assay (MAO-Glo assay kit)
- Protocol conditions: 4 μM substrate, 30 mins pre-incubation
pIC50: −log10 of the molar value.
In this section we review reported pIC50 values for a set of compounds.

Observe how each entry below is paired with its result.
Cpd smiles | Target or test system | Result
NC/C(=C\F)COc1ccc(S(=O)(=O)CN2Cc3ccccc3C2=O)cc1 | recombinant hMAO-B (Homo sapiens (Human)) | > 5.00
NC/C(=C\F)COc1ccc(S(=O)(=O)CC23CCC(NC(=O)C4CC4)(CC2)CC3)cc1 | recombinant hMAO-B (Homo sapiens (Human)) | 4.52 to 5.00
NC/C(=C\F)COc1ccc(S(=O)(=O)CC23CCC(C(=O)NCC(F)(F)F)(CC2)CC3)cc1 | recombinant hMAO-B (Homo sapiens (Human)) | 4.52 to 5.00
NC/C(=C\F)COc1ccc(S(=O)(=O)CC23CCC(NC(=O)C4(C(F)(F)F)CC4)(CC2)CC3)cc1 | recombinant hMAO-B (Homo sapiens (Human)) | 4.52 to 5.00
NC/C(=C\F)COc1ccc(S(=O)(=O)CC23CCC(O)(CC2)CC3)cc1 | recombinant hMAO-B (Homo sapiens (Human)) | 4.52 to 5.00

Item under review: NC/C(=C\F)COc1ccc(S(=O)(=O)CN2CCOCC2=O)c(F)c1 . Reported pIC50?
< 4.52

Item under review: NC/C(=C\F)COc1ccc(S(=O)(=O)CN2C(=O)CCc3ccccc32)cc1 . Reported pIC50?
< 4.52

Item under review: CCN(CC)C(=O)C12CCC(CS(=O)(=O)c3ccc(OC/C(=C/F)CN)cc3)(CC1)CC2 . Reported pIC50?
< 4.52

Item under review: NC/C(=C\F)COc1ccc(S(=O)(=O)CC23CCC(C(=O)NC4CCC4)(CC2)CC3)cc1 . Reported pIC50?
4.52 to 5.00

Item under review: CC(C)C(=O)N(C)CS(=O)(=O)c1ccc(OC/C(=C/F)CN)cc1 . Reported pIC50?
> 5.00

Item under review: CC1(NC(=O)C23CCC(CS(=O)(=O)c4ccc(OC/C(=C/F)CN)cc4)(CC2)CC3)CC1 . Reported pIC50?
< 4.52

Item under review: CCN(CC(C)(C)CS(=O)(=O)c1ccc(OC/C(=C/F)CN)cc1)C(=O)C(C)C . Reported pIC50?
4.52 to 5.00

Item under review: CC1(C)CC(=O)N(CS(=O)(=O)c2ccc(OC/C(=C/F)CN)cc2)C1 . Reported pIC50?
4.52 to 5.00

Item under review: NC/C(=C\F)COc1ccc(S(=O)(=O)CC2CCN(C(=O)CC3CC3)CC2)cc1 . Reported pIC50?
< 4.52

Item under review: NC/C(=C\F)COc1ccc(S(=O)(=O)CC2CCN(C(=O)CC(F)(F)F)CC2)c(F)c1 . Reported pIC50?
< 4.52

Item under review: CC(C)(C)C(=O)NC12CCC(CS(=O)(=O)c3ccc(OC/C(=C/F)CN)cc3)(CC1)CC2 . Reported pIC50?
4.52 to 5.00

----------
In this section we review reported IC50 values for a set of molecules.
- Target or test system: recombinant hMAO-B (Homo sapiens (Human))
- Procedure summary: MAO-B activity assay (MAO-Glo assay kit)
- Protocol conditions: 4 μM substrate, 30 mins pre-incubation
- Method: The biological activities of the compounds of the present application can be assessed with methods and assays known in the art. For example, the potency of the compounds of the present application can be evaluated with an SSAO Activity Assay. […] The IC50 can be calculated, for example, by fitting the dose response curve using a 4-parameter non-linear regression routine. Amine oxidase activity of recombinant hSSAO, hMAO-A, and hMAO-B isoforms are measured using the MAO-Glo assay kit (Promega, V1402). […]

Molecule | Readout label | Result
NC/C(=C\F)COc1ccc(S(=O)(=O)CC23CCC(C(=O)N4CCCC4)(CC2)CC3)cc1 [Compound 61] | IC50 | 10 to 30 µM
CC1(C(=O)NC23CCC(CS(=O)(=O)c4ccc(OC/C(=C/F)CN)cc4)(CC2)CC3)CC1 [Compound 91] | IC50 | 10 to 30 µM

Item under review: NC/C(=C\F)COc1ccc(S(=O)(=O)CC23CCC(C(=O)NC4CC4)(CC2)CC3)cc1 [Compound 75] . Reported IC50?
10 to 30 µM

Item under review: NC/C(=C\F)COc1ccc(S(=O)(=O)CC2CCN(C(=O)C34CC5CC(CC(C5)C3)C4)CC2)cc1 [Compound 43] . Reported IC50?
10 to 30 µM

Item under review: NC/C(=C\F)COc1ccc(S(=O)(=O)CC2CCN(C(=O)C3CC3)CC2)cc1 [Compound 44] . Reported IC50?
> 30 µM

Item under review: CC1(CS(=O)(=O)c2ccc(OC/C(=C/F)CN)cc2)CCN(C(=O)C2(C)CCC2)CC1 [Compound 56] . Reported IC50?
10 to 30 µM

Item under review: NC/C(=C\F)COc1ccc(S(=O)(=O)Cc2ccc(C(=O)NC3CCC3)c(C(F)(F)F)c2)cc1 [compound 89] . Reported IC50?
10 to 30 µM

----------
- Target or test system: recombinant hSSAO (Homo sapiens (Human), UniProt Q16853)
- Procedure summary: SSAO Activity Assay (MAO-Glo assay kit)
- Protocol conditions: 40 μM substrate, 30 mins pre-incubation
pIC50: −log10 of the molar value.
In this section we review reported pIC50 values for a set of compounds.

Compound | pIC50
CC1(CS(=O)(=O)c2ccc(OC/C(=C/F)CN)cc2)CCN(C(=O)C2(C)CCC2)CC1 | 7.00 to 7.70
NC/C(=C\F)COc1ccc(S(=O)(=O)Cc2cccc(C(=O)N3CCCC3)c2)cc1 | 6.30 to 7.00
NC/C(=C\F)COc1ccc(S(=O)(=O)CC2CCN(C(=O)C3CCCC3)CC2)c(F)c1 | 6.30 to 7.00
NC/C(=C\F)COc1ccc(S(=O)(=O)CC2CCN(C(=O)C3CC3)CC2)c(Cl)c1 | 7.00 to 7.70

Item under review: NC/C(=C\F)COc1ccc(S(=O)(=O)CC23CCC(NC(=O)C4CC4(F)F)(CC2)CC3)cc1 (centres unmarked) . Reported pIC50?
> 7.70

Item under review: COCC(COC)CS(=O)(=O)c1ccc(OC/C(=C/F)CN)cc1 . Reported pIC50?
7.00 to 7.70

Item under review: CC1(COCS(=O)(=O)c2ccc(OC/C(=C/F)CN)cc2)CCOCC1 . Reported pIC50?
7.00 to 7.70

Item under review: NC/C(=C\F)COc1ccc(S(=O)(=O)CC2(CN3CCCCC3=O)CC2)cc1 . Reported pIC50?
7.00 to 7.70

Item under review: NC/C(=C\F)COc1ccc(S(=O)(=O)CC23CCC(C(=O)NCC(F)(F)F)(CC2)CC3)cc1 . Reported pIC50?
> 7.70

Item under review: CCN(CC(C)(C)CS(=O)(=O)c1ccc(OC/C(=C/F)CN)cc1)C(=O)C(C)C . Reported pIC50?
7.00 to 7.70

Item under review: NC/C(=C\F)COc1ccc(S(=O)(=O)CC23CCC(NC(=O)C4CCC4)(CC2)CC3)cc1 . Reported pIC50?
> 7.70

Item under review: NC/C(=C\F)COc1ccc(S(=O)(=O)CC23CCC(NS(=O)(=O)C4CC4)(CC2)CC3)cc1 . Reported pIC50?
> 7.70

Item under review: NC/C(=C\F)COc1ccc(S(=O)(=O)COCC2CCN(C(=O)C3(C(F)(F)F)CC3)CC2)cc1 . Reported pIC50?
7.00 to 7.70

Item under review: CC(C)C(=O)NC12CCC(CS(=O)(=O)c3ccc(OC/C(=C/F)CN)cc3)(CC1)CC2 . Reported pIC50?
> 7.70

Item under review: NC/C(=C\F)COc1ccc(S(=O)(=O)CC23CCC(NC(=O)C4(F)CC4)(CC2)CC3)cc1 . Reported pIC50?
> 7.70

Item under review: NC/C(=C\F)COc1ccc(S(=O)(=O)CC23CC(C(=O)NC4CCC4)(C2)C3)cc1 . Reported pIC50?
7.00 to 7.70

Item under review: NC/C(=C\F)COc1ccc(S(=O)(=O)CC23CCC(NC(=O)C4(C(F)(F)F)CC4)(CC2)CC3)cc1 . Reported pIC50?
7.00 to 7.70

Item under review: NC/C(=C\F)COc1ccc(S(=O)(=O)COC2CCOCC2)cc1 . Reported pIC50?
7.00 to 7.70

Item under review: N#CC1(CS(=O)(=O)c2ccc(OC/C(=C/F)CN)cc2)CCOCC1 . Reported pIC50?
7.00 to 7.70

Item under review: NC/C(=C\F)COc1ccc(S(=O)(=O)CC23CCC(C(=O)NC4CC4)(CC2)CC3)cc1 . Reported pIC50?
> 7.70
